For each of the molecules below, state its inhibition.
molecular target: Neuropeptide FF receptor 1 (Homo sapiens); assay: Displacement of [3H]FFRF-NH2 from human flag-tagged NPFF1 receptor expressed in CHO cells at 500 nM by scintillation counting; assay type: cell-based
Sequence (Q9GZQ6 whole entry): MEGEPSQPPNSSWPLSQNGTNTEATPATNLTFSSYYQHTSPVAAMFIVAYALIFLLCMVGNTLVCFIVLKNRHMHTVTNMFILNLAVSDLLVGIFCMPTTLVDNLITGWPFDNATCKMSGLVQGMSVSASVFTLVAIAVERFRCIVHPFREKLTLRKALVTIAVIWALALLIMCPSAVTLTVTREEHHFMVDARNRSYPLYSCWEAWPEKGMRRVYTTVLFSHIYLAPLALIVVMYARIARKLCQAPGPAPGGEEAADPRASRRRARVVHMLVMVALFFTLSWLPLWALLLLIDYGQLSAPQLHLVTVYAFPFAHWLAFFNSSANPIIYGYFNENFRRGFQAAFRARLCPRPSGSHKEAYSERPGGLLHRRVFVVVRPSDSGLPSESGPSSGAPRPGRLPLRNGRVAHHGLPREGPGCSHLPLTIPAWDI
Give just the number in %; leave the unit off.

## Input Need inhibition, item N=C(N)NCCC[C@H](NC(=O)C(c1ccccc1)c1ccccc1)C(=O)N[C@@H](Cc1ccccc1)C(N)=O
## Output 34

## Input Need inhibition, item N=C(N)NCCC[C@H](NC(=O)/C=C/c1ccccc1O)C(=O)N[C@@H](Cc1ccccc1)C(N)=O
## Output 25

## Input Need inhibition, item N=C(N)NCCC[C@@H](NC(=O)C12CC3CC(CC(C3)C1)C2)C(=O)N[C@H](Cc1ccccc1)C(N)=O
## Output 57

## Input Need inhibition, item N=C(N)NCCC[C@@H](NC(=O)Cc1ccccc1)C(=O)N[C@H](Cc1ccccc1)C(N)=O
## Output 43

## Input Need inhibition, item N=C(N)NCCC[C@H](NC(=O)/C=C/c1cnc[nH]1)C(=O)N[C@@H](Cc1ccccc1)C(N)=O
## Output 1

## Input Need inhibition, item N=C(N)NCCC[C@H](NC(=O)c1ccc2ccccc2n1)C(=O)N[C@@H](Cc1ccccc1)C(N)=O
## Output 34

## Input Need inhibition, item N=C(N)NCCC[C@H](NC(=O)c1[nH]c2ccccc2c1-c1ccccc1)C(=O)N[C@@H](Cc1ccccc1)C(N)=O
## Output 39

## Input Need inhibition, item CC(C)(C)c1ccc(C(=O)N[C@@H](CCCNC(=N)N)C(=O)N[C@@H](Cc2ccccc2)C(N)=O)cc1
## Output 43

## Input Need inhibition, item COc1cccc(CC(=O)N[C@@H](CCCNC(=N)N)C(=O)N[C@@H](Cc2ccccc2)C(N)=O)c1
## Output 42

## Input Need inhibition, item N=C(N)NCCC[C@@H](NC(=O)/C=C/c1ccccc1)C(=O)N[C@H](Cc1ccccc1)C(N)=O
## Output 55

## Input Need inhibition, item COc1ccc(C(=O)N[C@@H](CCCNC(=N)N)C(=O)N[C@@H](Cc2ccccc2)C(N)=O)cc1
## Output 18

## Input Need inhibition, item N=C(N)NCCC[C@H](NC(=O)CCC(=O)O)C(=O)N[C@@H](Cc1ccccc1)C(N)=O
## Output 29

## Input Need inhibition, item N=C(N)NCCC[C@H](NC(=O)c1cccc(Cl)c1)C(=O)N[C@@H](Cc1ccccc1)C(N)=O
## Output 56

## Input Need inhibition, item COc1ccccc1C(=O)N[C@@H](CCCNC(=N)N)C(=O)N[C@@H](Cc1ccccc1)C(N)=O
## Output 40

## Input Need inhibition, item CCCCCCCCCCC(=O)N[C@@H](CCCNC(=N)N)C(=O)N[C@@H](Cc1ccccc1)C(N)=O
## Output 44

## Input Need inhibition, item COc1cccc(C(=O)N[C@@H](CCCNC(=N)N)C(=O)N[C@@H](Cc2ccccc2)C(N)=O)c1
## Output 11

## Input Need inhibition, item Cc1ccc(CC(=O)N[C@@H](CCCNC(=N)N)C(=O)N[C@@H](Cc2ccccc2)C(N)=O)cc1
## Output 34

## Input Need inhibition, item N=C(N)NCCC[C@H](NC(=O)c1ccc(Cl)cc1Cl)C(=O)N[C@@H](Cc1ccccc1)C(N)=O
## Output 0

## Input Need inhibition, item N=C(N)NCCC[C@H](NC(=O)c1c(Cl)cccc1Cl)C(=O)N[C@@H](Cc1ccccc1)C(N)=O
## Output 30

## Input Need inhibition, item N=C(N)NCCC[C@H](NC(=O)c1ccc(C(=O)c2ccccc2)cc1)C(=O)N[C@@H](Cc1ccccc1)C(N)=O
## Output 14

## Input Need inhibition, item N=C(N)NCCC[C@H](NC(=O)c1cnc2ccccc2c1)C(=O)N[C@@H](Cc1ccccc1)C(N)=O
## Output 22

## Input Need inhibition, item N=C(N)NCCC[C@H](NC(=O)Cc1ccc(O)cc1)C(=O)N[C@@H](Cc1ccccc1)C(N)=O
## Output 32

## Input Need inhibition, item N=C(N)NCCC[C@H](NC(=O)c1cccnc1)C(=O)N[C@@H](Cc1ccccc1)C(N)=O
## Output 11

## Input Need inhibition, item N=C(N)NCCC[C@@H](NC(=O)c1cccc(-c2ccccc2)c1)C(=O)N[C@H](Cc1ccccc1)C(N)=O
## Output 63
